The reported numbers originate from paper PMC5540273.

Field: %Inh. Provide a value for each of the compounds that follow.
# Tested on: BTK
# Stated conditions: concentration: 1 μM, replicates: in singlicate; n = 1;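 note: KINOMEscan kinase panel screen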
# output: numeric value plus its unit

Record request: %Inh value, item O=C(NC1CCN(c2ccnc(Nc3ccc(F)cc3)n2)C1)c1cc2ccccc2s1 (stereo not shown)
0%

Recorded %Inh for COc1cccc(-c2ccc3c(NC(=O)C4CC4)n[nH]c3n2)c1 , please?
29%

Given CCS(=O)(=O)c1ccc(OC)c(Nc2nccc(-c3c(-c4cccc(NC(=O)c5c(F)cccc5F)c4)nn4ncccc34)n2)c1 , state its recorded %Inh.
15%

Which %Inh value is on record for Cc1ccc(C(=O)N2CC[C@@H](O)C2)cc1-n1c(C)cc(OCc2ccc(F)cc2F)c(Br)c1=O ?
0%

# %Inh lookup, item C[C@@H](Oc1cc(-n2cnc3cc(-c4ccnc(NCCS(C)(=O)=O)c4)ccc32)sc1C(N)=O)c1ccccc1Cl
0%

Name the recorded %Inh for c1ccc(-c2n[nH]cc2Nc2ccnc3ccccc23)nc1 .
0%

Entry Cl.c1ccc(-c2ccc3c(Nc4ccc5[nH]ncc5c4)ccnc3c2)nc1 has what %Inh?
0%

Looking for the measured %Inh of Cc1cccc(Nc2nc(N[C@H]3CCNC3)ncc2C(N)=O)c1.Cl , can you help?
0%

Given the compound COc1cc(Nc2nccc(N3CCC(NC(=O)Nc4cccc(C(C)=O)c4)C3)n2)cc(OC)c1OC (stereo not shown) , what is its reported %Inh?
0%

Record request: %Inh value, item Cl.Cl.NCC(NCc1ccc(-c2ccnc3[nH]ccc23)s1)c1ccccc1 (stereo not shown)
0%

Would you mind telling me what %Inh value was observed for CC(=O)N1CCN(c2ccc(Nc3nccc(-c4sc(C(C)C)nc4-c4cccc(NS(=O)(=O)c5cccc(Cl)c5)c4)n3)cn2)CC1 ?
36%

Reported %Inh for FC(F)(F)c1ccc(/C=C/c2cncnc2Nc2ccc3[nH]c(Cc4ccccc4)nc3c2)cc1 : what is it?
19%

Item under review: COc1ccc(-c2coc3ccc(-c4nnc(SCc5ccc(OC)c(C(F)(F)F)c5)o4)cc23)cc1 . Reported %Inh?
0%

Recorded %Inh for COC(=O)Nc1nc2ccc(Oc3ccc(NC(=O)Nc4cc(C(F)(F)F)ccc4F)cc3)cc2n1C.Cl , please?
59%

What value of %Inh has been recorded for this entry: COC(=O)Nc1nc2cc(Oc3ccc(NC(=O)Nc4cc(C(F)(F)F)ccc4F)cn3)ccc2[nH]1.Cl.Cl
0%

For the compound CC(C)c1nc(-c2cccc(NS(=O)(=O)c3c(F)cccc3F)c2F)c(-c2ccnc(Nc3ccc(N4CCOCC4)nc3)n2)s1 , what %Inh is on record?
95.3%

====

# System: ERN1
# Stated conditions: concentration: 1 μM, replicates: in singlicate; n = 1
Each record is given T if its reported %Inh is strictly below 7%. Records at or above 7% are given F.

State whether 7% exceeds %Inh recorded for COc1cc(Nc2nccc(-c3c(-c4cccc(NC(=O)c5c(F)cccc5F)c4)nn4ccccc34)n2)cc(OC)c1OC [GSK323521] .
T

Please determine if CN(C)S(=O)(=O)c1cc(-c2ccc3nccc(-c4cccc(S(N)(=O)=O)c4)c3c2)cnc1N [GSK1669921] is below 7% in terms of %Inh.
F

Report whether reported %Inh is lower than 7% (strictly) for Cn1cc(-c2[nH]c3cc(NC(=O)[C@H](N)C4CCCCC4)cc4c3c2C=NNC4=O)cn1
F

Strictly below 7%: is that where %Inh of O=C(Nc1n[nH]c2nc(-c3ccc(O)cc3)ccc12)C1CC1 [SB-710363] sits?
T

Determine whether this compound shows %Inh lower than 7% (ties excluded): COc1ccc(-c2coc3ccc(-c4nnc(SCc5ccc(OC)c(C(F)(F)F)c5)o4)cc23)cc1
F

In plain terms, does COc1cc(Nc2ncc3c(C)nc(-c4cc5ccccc5[nH]4)n3n2)cc(OC)c1OC [GW869516] come in under 7% for %Inh?
T

Lab log: compare recorded %Inh with 7%; is it strictly lower for FC(F)(F)c1ccc(/C=C/c2cncnc2Nc2ccc3[nH]c(Cc4ccccc4)nc3c2)cc1 [GW709199] ?
T

Does CNC(=O)c1ccccc1Nc1nc(Nc2ccc(N3CCOCC3)cc2)ncc1Cl.Cl [GSK1576028] have %Inh strictly under 7%?
F

I'd appreciate it if you could check whether CCn1c(-c2nonc2N)nc2c(C#CC(C)(C)O)nc(OC[C@H](N)c3ccccc3)cc21 [GSK943949] has %Inh smaller than 7%.
T

State whether 7% exceeds %Inh recorded for Cc1ccc(C(=O)Nc2ccc(Nc3ccnc4cc(-c5nccs5)ccc34)cc2O)cc1.Cl [GW494702] .
T

Here's an entry: O=c1[nH]cc(-c2ccc(N3CCOCC3)cc2)c2sc(-c3cn[nH]c3)cc12 [GSK2276055] . Is its %Inh below 7%?
F

Check if %Inh falls below 7% for CCCCc1nn2ncccc2c1-c1ccnc(Nc2ccc(N3CCN(C)CC3)cc2)n1 [GW684941] .
T

Consider the compound CN1CCN(Cc2cccc(-c3ccc4c(Nc5ccc(Oc6ccccc6)cc5)ccnc4c3)c2)CC1 [GW578342] . Is its %Inh strictly less than 7%?
F

Confirm or reject: %Inh of COc1ccc(CNC(=O)NC2CCN(c3ccnc(Nc4ccc(F)cc4)n3)CC2)cc1 [GSK1379788] lies strictly below 7%
T

Here's an entry: Cn1cc(-c2ccc3c(c2)CCN3C(=O)Cc2cccc(Cl)c2)c2c(N)ncnc21 [GSK2606590] . Is its %Inh below 7%?
T

Bench note: check whether Cl.Cl.NCC(NC(=O)c1cc(-c2ccccc2)c(-c2ccnc3[nH]ccc23)s1)c1ccccc1 (centres unmarked) [GSK1321561] shows %Inh below 7%
T
